Origin of values: ChEMBL document CHEMBL5518221

Below, each entry is listed with its recorded Vd at 8 h.
Assay: Volume of distribution at steady state in male Sprague-Dawley rat at 1 mg/kg, iv measured after 8 hrs by LC-MS/MS analysis
Conditions: in vivo
Response body: numeric value in L/kg, unit text excluded.

{"ITEM_SMILES": "CCN1C(=O)N(c2ccc(C(F)(F)F)cc2)C(=O)C12CCN(CC1CCOCC1)CC2", "UNITS_OF_MEASURE": "L/kg", "Vd at 8 h": 8.3}
{"ITEM_SMILES": "CCN1C(=O)N([C@H]2CC[C@H](C(F)(F)F)CC2)C(=O)C12CCN(CC1CCOCC1)CC2", "UNITS_OF_MEASURE": "L/kg", "Vd at 8 h": 8.3}

Q) Recorded Vd at 8 h for CCN1C(=O)N(c2ccc(C3CC3)cc2)C(=O)C12CCN(CC1CCOCC1)CC2 , please?
A) 6.2

* * *

Test: Unbound brain-to-plasma concentration ratio in female C57BL/6 mouse at 1 mg/kg, iv measured after 8 hrs by LC-MS/MS analysis
OBSERVABLE: Kp uu at 8 h
I'd appreciate a reply containing only the number, no unit.

Q) Recorded Kp uu at 8 h for CCN1C(=O)N([C@H]2CC[C@H](C(F)(F)F)CC2)C(=O)C12CCN(CC1CCOCC1)CC2 , please?
A) 0.56

Q) Recorded Kp uu at 8 h for CCN1C(=O)N(c2ccc(C3CC3)cc2)C(=O)C12CCN(CC1CCOCC1)CC2 , please?
A) 0.77

Q) Recorded Kp uu at 8 h for CCN1C(=O)N(c2ccc(C(F)(F)F)cc2)C(=O)C12CCN(CC1CCOCC1)CC2 , please?
A) 0.95

* * *

Below, each entry is listed with its recorded Kp uu at 8 h.
Test: Unbound brain-to-plasma concentration ratio in female C57BL/6 mouse at 10 mg/kg, po measured after 8 hrs by LC-MS/MS analysis
I'd appreciate a reply containing only the number, no unit.

{"ITEM_SMILES": "CCN1C(=O)N([C@H]2CC[C@H](C(F)(F)F)CC2)C(=O)C12CCN(CC1CCOCC1)CC2", "Kp uu at 8 h": 0.62}

# input for lookup
Q) Recorded Kp uu at 8 h for CCN1C(=O)N(c2ccc(C3CC3)cc2)C(=O)C12CCN(CC1CCOCC1)CC2 , please?
A) 0.72

* * *

Below, each entry is listed with its recorded clearance at […].
Assay: Clearance in female C57BL/6 mouse at 1 mg/kg, iv measured after 0.083 hrs by LC-MS/MS analysis
Settings: in vivo
Record the result as a number with its unit.

Would you please look over these solved cases?
{"ITEM_SMILES": "CCN1C(=O)N(c2ccc(C(F)(F)F)cc2)C(=O)C12CCN(CC1CCOCC1)CC2", "clearance at […]": "4 mL/min/kg"}
{"ITEM_SMILES": "CCN1C(=O)N([C@H]2CC[C@H](C(F)(F)F)CC2)C(=O)C12CCN(CC1CCOCC1)CC2", "clearance at […]": "9.9 mL/min/kg"}

Q) Recorded clearance at […] for CCN1C(=O)N(c2ccc(C3CC3)cc2)C(=O)C12CCN(CC1CCOCC1)CC2 , please?
A) 17 mL/min/kg

* * *

Target: 3-beta-hydroxysteroid-Delta(8),Delta(7)-isomerase (Mus musculus)
Sequence (P70245 whole entry): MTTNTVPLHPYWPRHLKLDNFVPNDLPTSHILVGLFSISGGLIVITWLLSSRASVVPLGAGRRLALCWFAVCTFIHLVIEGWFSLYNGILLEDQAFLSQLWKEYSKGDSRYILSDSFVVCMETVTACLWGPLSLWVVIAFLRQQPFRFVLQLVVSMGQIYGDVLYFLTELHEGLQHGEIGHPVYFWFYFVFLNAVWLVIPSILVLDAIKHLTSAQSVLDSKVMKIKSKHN
Test: Inhibition of EBP in mouse Oligodendrocyte precursor cell assessed as zymostenol accumulation by GCMS analysis
The threshold is 0.07 µM. Values of EC50 beneath it are tagged Criterion met; values meeting or exceeding it are tagged Criterion not met.

Sample answers from the record:
{"COMPOUND": "CCN1C(=O)N(c2ccc(C(F)(F)F)cc2)C(=O)C12CCN(C(C)C1CCOCC1)CC2 (centres undefined)", "CATEGORY": "Criterion met"}
{"COMPOUND": "CCN1C(=O)N(c2ccc(C3CC3)cc2)C(=O)C12CCN(CC1CCOCC1)CC2", "CATEGORY": "Criterion met"}
{"COMPOUND": "CCN1C(=O)N(c2ccc(C(F)(F)F)cc2)C(=O)C12CCN(CC1CCOCC1)CC2", "CATEGORY": "Criterion met"}
{"COMPOUND": "CCN1C(=O)N(c2cc(Cl)cc(C#N)c2)C(=O)C12CCN(CC1CCOCC1)CC2", "CATEGORY": "Criterion met"}
{"COMPOUND": "CCN1C(=O)N(c2ccc(C(F)(F)F)cc2)C(=O)C12CCN(C1CCOCC1)CC2", "CATEGORY": "Criterion not met"}
{"COMPOUND": "CC(C)N1C(=O)N(c2ccc(C(F)(F)F)cc2)C(=O)C12CCN(CC1CCOCC1)CC2", "CATEGORY": "Criterion not met"}
{"COMPOUND": "O=C1N(c2ccc(C(F)(F)F)cc2)CCC12CCN(CC1CCOCC1)CC2", "CATEGORY": "Criterion met"}
{"COMPOUND": "CCN1C(=O)N(c2ccc(C(F)(F)F)cc2)C(=O)C12CCN(C1CCCOCC1)CC2 (centres undefined)", "CATEGORY": "Criterion not met"}

Q) # check: EC50 < 0.07 µM for O=C1NC2(CCN(CC3CCOCC3)CC2)C(=O)N1c1ccc(C(F)(F)F)cc1
A) Criterion not met

Q) # check: EC50 < 0.07 µM for CCN1C(=O)N(c2ccc(C)cc2)C(=O)C12CCN(CC1CCOCC1)CC2
A) Criterion met

Q) # check: EC50 < 0.07 µM for CN1C(=O)N(c2ccc(C(F)(F)F)cc2)C(=O)C12CCN(CC1CCOCC1)CC2
A) Criterion met

Q) # check: EC50 < 0.07 µM for CCN1C(=O)N(c2cccc(C3CC3)c2)C(=O)C12CCN(CC1CCOCC1)CC2
A) Criterion met

Q) # check: EC50 < 0.07 µM for CCN1C(=O)N(c2ccc(C(F)(F)F)cc2)C(=O)C12CCN(CC1CCS(=O)(=O)CC1)CC2
A) Criterion met
